Listed next: entries and their corresponding NMR signal, conc 1.
Test system: human Fab of κ-type
test_description: STD-NMR binding test (saturation transfer difference NMR screening)
Set-up: key: 0 no; 1 weak; 2 strong signal
condition_notes: 500 nM protein; 0.5 mM ligand
Procedure: All NMR experiments were performed at 298 K on a Bruker Avance 500 MHz spectrometer. […] The two spectra are recorded in the same experiment in an interleaved fashion. […] Under such conditions, at higher protein concentrations the weak to medium binders are detected, whereas at lower protein concentrations only medium binders are detected. […]
Write the number on its own, no unit after it.

// worked examples, NMR signal, conc 1 included
COC(=O)C1OC1c1cc(Cl)ccc1OC (centres unmarked) [AB_0001240]; 1
CC1(C)CC(=O)c2sc(NC(=O)c3cccnc3)nc2C1 [AB_0000750]; 0
O=C1C(=O)N(c2ccccc2)C(=O)N1c1ccccc1 [AB_0000540, 1,3-diphenylparabanic acid]; 0
CC(C)=CC1=C(O)C(=O)c2ccccc2C1=O [AB_0001040]; 1

# input for lookup
Lab note: measured NMR signal, conc 1 of N=c1sccn1CC(=O)c1ccc2ccccc2c1 [AB_0001060] was 2

====

Test system: human Fab of κ-type
test_description: STD-NMR binding test (saturation transfer difference NMR screening)
Design: key: 0 no; 1 weak; 2 strong signal
condition_notes: 500 nM protein; 0.5 mM ligand
reported_endpoint: NMR signal, conc 1
Write the number on its own, no unit after it.

// worked examples, NMR signal, conc 1 included
O=C(Cc1ncon1)Nc1ccc(F)c(F)c1F; 0
CN(C)C(=O)N(C)c1ccc(Cl)c(Cl)c1; 2
CSCCNC(=O)c1nc2ccccc2c(=O)n1N; 0
FC(F)(F)c1cccc(-n2ccnc2)c1; 2

Lab note: measured NMR signal, conc 1 of O=C(c1ccccn1)C(O)c1ccccn1 (stereo not shown) was 0

Lab note: measured NMR signal, conc 1 of O=C(COc1ccc2ccccc2c1)ON1C(=O)CCC1=O was 0

Lab note: measured NMR signal, conc 1 of O=C1C=CC(=O)N1c1cccc(Cl)c1 [AB_0001090, n-(3-chlorophenyl)-maleimide] was 1

Lab note: measured NMR signal, conc 1 of O=C(Cc1ncon1)Nc1ccc(F)cc1F was 0

Lab note: measured NMR signal, conc 1 of O=C(O)c1ccnn(-c2ccccc2)c1=O was 0

Lab note: measured NMR signal, conc 1 of CC1CN=C(SCc2ccccc2)N1.Cl (stereo not shown) was 0
